Molecular target: IMP1 KH1KH2DD (Homo sapiens, UniProt Q9NZI8 194-369, K294D;E295D)
Sequence (Q9NZI8 194-369 K294D/E295D): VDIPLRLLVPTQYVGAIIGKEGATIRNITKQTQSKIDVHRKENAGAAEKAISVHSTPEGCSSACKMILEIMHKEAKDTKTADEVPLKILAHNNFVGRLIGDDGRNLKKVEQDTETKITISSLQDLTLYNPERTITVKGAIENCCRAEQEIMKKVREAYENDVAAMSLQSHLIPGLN
Assay: BLI; 10 mM sodium phosphate pH 7.4, 50 mM NaCl; ITC 25 C with 2 mM TCEP; BLI 30 C with 0.5 mM TCEP and 0.5 mg/ml BSA; NMR 0.5 mM TCEP; RNAsin 40-100 u/ml
Conditions: protein: recombinant; tags: 6xHis-GST removed by TEV; label: 5'-biotin
measurement-label: Kd (nM)
Give bare numbers, in nM.

Indicate the recorded Kd value for this binder: CACAGCAUACAUCCUGUCCGUC (ssRNA) [MYCRNA]
1760
